FYI, the data here is from the supplement of paper PMC12764529.

assayProcedure: folding stability dG unfold (combined trypsin and chymotrypsin); higher = more stable
testReadout: folding stability dG unfold (kcal/mol)
Please respond with the number in kcal/mol and leave the unit unwritten.

sequenceText	testReadout	experimentalValue
SAGGKPKIRIKIEIYTPEKKETIELEFDSVEEALEALASLPGVKVEKLPDGTIYIKIPNLIIKIEIEPSAGG [r13_143_TrROS_Hall]	folding stability dG unfold	3.42
SAGGAPNWKIEKIEIEYPGRKIEVWRHDNMWFIHIPAPPGYPIRIKIKIEPDNGETQTQERTFPIPPPSAGG [r13_191_TrROS]	folding stability dG unfold	2.37

Inquiry: # return recorded folding stability dG unfold for input SAGGSAGGSAGGEAFEVERVELVLDPETGTPYLLVYFRDGRVLVYDLPRGTWRVVPAEELSAGGSAGGSAGG [r11_922_TrMRF]
Reply text: 2.81

---

assayProcedure: folding stability dG unfold from trypsin proteolysis; higher = more stable
Examples of sequences with documented folding stability dG unfold follow.
Please respond with the number in kcal/mol and leave the unit unwritten.

Known results for sequences:
sequenceText	folding stability dG unfold (kcal/mol)
SAGPKITVKKLPDGSYLLLIEVPHEGGPSSRALIPYNPKTGKLELLEIETTHEEIKDKLIELAEELRKSSAG [r5_266_TrMRF]	1.96
SAGGKKPERVKITIMIPFDDPDKLRNFLRNHGFKVDEVEPNKEGMLAVEFEFPGYEIEIIIMDPGAMSAGGS [r16_170_TrROS]	2.83
SAGGSAGALLVRFNDPELVRELIEALPFDALVERDPDDPNVLLVTLFTDGPLEEAVRAVREALGLESAGGSA [r15_118_TrMRF]	2.35
SAGGSAGGKKKKKKKKKYYTFVLKVKEKDLTPEEIKKLFPNVKIEKKDGYLVITVKVNGKEIKFSAGGSAGG [r6_738_TrROS_Hall]	1.43
SAGGLKPGDWVIIMTIEFPFPFPDDDGKPQEWRIKITIWVPVEYDPPDGKLEIDNIFINIEIVPPDQISAGG [r13_312_TrROS]	3.52
SAGGSAAKPGETVRVVVTVRVPPGATAEELKAALEALLGPDAEVTVEVFETPDTVVVVVEVRLPPASAGGSA [r15_749_TrROS_Hall]	2.65

Continue with the sequence presented below.
Inquiry: # return recorded folding stability dG unfold for input SAGGSAGGSAGGSDDPDGKPKPQIPPIKVEPIPIKDPNGWSIEIYYFPWNGMLIISFYNSAGGSAGGSAGGS [r4_305_TrROS]
Reply text: 3.3

---

assayProcedure: folding stability dG unfold from chymotrypsin proteolysis; higher = more stable
testReadout: folding stability dG unfold (kcal/mol)
Please respond with the number in kcal/mol and leave the unit unwritten.

sequenceText	experimentalValue
SAGKIKIEVEYLDPNGDWRRYEHTIPFKPNQSFEEAINELLPPGLREIKITEVDPEEGTIKIDIWIRPDSAG [r5_227_TrROS]	2.5
SGGMVNATVTVTLPLPDLPPVTLTVTITEEATPEEAEARKKALAAELEAELRAAAADAALPAPALTSALLSA [r9_626_JUSTAS]	0.156
SKMKVIKTFENKETGEKIVIVKDEKTKKYYIFIYNKDGELVEKIEVEPGETITLPNGKTITIKEGDVIEFSA [r9_340_TrROS_Hall]	4.24
SAGGSAGGEPELNVLETLEETVDPNTGLTYTTELVQLPDGTLVTVKTLYDKATGTWTVLETTPESAGGSAGG [r6_262_JUSTAS]	2.07
SAGGMPYRLDAVRVEVRPRPDGGPLLVVELTYPDGSRETAVFDSPEDLLRALENSPRFSEITLLPSVSAGGS [r16_757_TrMRF]	0.16

Continue with the sequence presented below.
Inquiry: # return recorded folding stability dG unfold for input SAGGSAGGSAGGMTQEVTLEPLPDGTVKLLSVEAPESTVTVPVKLPGGGEEVRTLPPEALSAGGSAGGSAGG [r7_829_JUSTAS]
Reply text: -0.255
